# System: HT-29
# assay.details: NCI tumour cell line growth inhibition, 48 h
Activity calls are given as the source filed them. Cut-off read from the data, not from the text of the source: active = GI50 up to about 1.1 µM and inactive = higher.
measure.name: GI50

Please review the entries below; each comes with its answer.
{"columns": ["molecule", "GI50"],
 "data": [
  ["COc1cccc(C(=O)N2CCc3ccccc32)c1OC", "38.9 µM (inactive)"],
  ["CCCCCC(/C=N/N)C(O)(C(F)(F)F)C(F)(F)F (stereo not given)", "3.59 µM (inactive)"],
  ["C[N+]12C=CC=C1C(N1CCCC1)c1scc(-c3ccc(F)cc3)c12 (stereo not given)", "18.3 µM (inactive)"],
  ["CC(C)c1c(O)c(O)c2c(c1O)C(=O)C(O)=C1C(C)(C)CCC[C@@]12C", "2.94 µM (inactive)"],
  ["O=C1c2ccccc2C(=O)c2c1ccc(C(=O)O)c2-c1ccc2ccccc2c1", "32.5 µM (inactive)"]
]}

// next item, GI50 requested
GI50 of O=C(/C=C/c1ccccc1)CCC1C(=O)c2ccccc2C1=O on HT-29?
> 100 µM (inactive)

* * *

Reported GI50 by item:
# Tested on: HOP-62
# assay.details: NCI tumour cell line growth inhibition, 48 h
Activity calls are given as the source filed them. Cut-off read from the data, not from the text of the source: active = GI50 up to about 1.1 µM and inactive = higher.

{"columns": ["compound", "subject.of.test", "GI50"],
 "data": [
  ["O=Cc1cn(CCCCCCCCCCCCn2cc(C=O)c3ccccc32)c2ccccc12", "HOP-62", "> 100 µM (inactive)"],
  ["Cn1cnc([N+](=O)[O-])c1Sc1nc2ccccc2[nH]1", "HOP-62", "> 100 µM (inactive)"],
  ["O=c1/c(=C/c2ccccc2[N+](=O)[O-])sc2nnc(-c3cccnc3)n12", "HOP-62", "> 100 µM (inactive)"],
  ["Cc1cnc(Cl)nc1C(C#N)c1nc2ccccc2n1C (stereo unspecified)", "HOP-62", "55.7 µM (inactive)"],
  ["O=C1c2ccccc2C(=O)N1CC#CCO", "HOP-62", "> 100 µM (inactive)"]
]}

Param item = CCN(CC)CCNc1ccc2ncn3c4cc(O)ccc4c(=O)c1c23 ; retrieve measured GI50.
4.85 µM (inactive)

* * *

# Test system: CAKI-1
# assay.details: NCI tumour cell line growth inhibition, 48 h
Active and inactive are the calls of the source. Cut-off read from the data, not from the text of the source: active = GI50 up to about 1.1 µM and inactive = higher.
measure.name: GI50

{"columns": ["compound", "subject.of.test", "GI50"],
 "data": [
  ["CC(N)Cc1ccc(Cl)cc1 (stereo not given)", "CAKI-1", "> 100 µM (inactive)"],
  ["CC(C)=CC[C@]12CCN[C@H]1N(S(=O)(=O)c1ccccc1)c1ccccc12", "CAKI-1", "20.1 µM (inactive)"],
  ["O=C(NNC(=O)c1cc2ccccc2[nH]1)c1cc2ccccc2[nH]1", "CAKI-1", "> 100 µM (inactive)"],
  ["N#CC1(Nc2ccc(-c3ccc(NC4(C#N)CCCC4)cc3)cc2)CCCC1", "CAKI-1", "> 100 µM (inactive)"]
]}

// next item, GI50 requested
Param item = COc1cc([N+](=O)[O-])c(S(=O)(=O)[O-])cc1-[n+]1nc(C(=O)Nc2ccccc2)nn1-c1ccc([N+](=O)[O-])c(S(=O)(=O)O)c1 ; retrieve measured GI50.
> 100 µM (inactive)

* * *

# System: T47D
# assay.details: NCI tumour cell line growth inhibition, 48 h
The source made the active and inactive calls. Rule as the data show it: active = GI50 up to about 1.1 µM and inactive = higher.
measure.name: GI50

Please review the entries below; each comes with its answer.
{"columns": ["chemical.smiles", "value"],
 "data": [
  ["Nn1c(S)nnc1C12CC3CC(CC(C3)C1)C2", "> 100 µM (inactive)"],
  ["CC(=O)CN/C(C)=N/Nc1ccc([N+](=O)[O-])cc1[N+](=O)[O-]", "> 100 µM (inactive)"],
  ["COC(=O)c1c(C)cccc1/C=C1\\Cc2cc(C)cc(C)c2C1=O", "31.7 µM (inactive)"]
]}

Param item = C=C(C)[C@H]1CC(=O)[C@@]2(C)C[C@H]3O[C@]3(C)CC/C=C(\C)CC[C@H]12 ; retrieve measured GI50.
38.4 µM (inactive)

Param item = CCCCCCNC(=O)c1cc(CCc2cc(O)ccc2O)ccc1O ; retrieve measured GI50.
1.85 µM (inactive)

* * *

# Test system: M14
# assay.details: NCI tumour cell line growth inhibition, 48 h
Calls of active or inactive are those of the source. No stated cut-off is given here; in the data, active = GI50 up to about 1.1 µM and inactive = higher.
Log the outcome using a class from 1 = active, 0 = inactive

Each molecule tested received a call. Report the one for Cc1cc(O)c2c(=O)c3c(O)cc(O)c4c5c(O)cc(O)c6c(=O)c7c(O)cc(C)c8c1c2c(c34)c(c78)c65 .
0

Each molecule tested received a call. Report the one for COC(=O)/C=C(\S/C(=C(/c1ccc(OC)cc1)n1cc(C(=O)OC)c(C(=O)OC)n1)c1ccc(OC)cc1)C(=O)OC .
0

Each molecule tested received a call. Report the one for Cn1c(=S)[nH]c(N)c(Cc2ccccc2)c1=O .
0

Each molecule tested received a call. Report the one for c1csc(-c2cc(-c3ccsc3)c(-c3cccs3)s2)c1 .
0

Each molecule tested received a call. Report the one for C/C=C(\N=C=S)C(=O)OC1C(COC(C)=O)OC([C@]2(O)CC(=O)C(N)=C(C(=O)O)C2=O)C(O)C1OC1CC(OC)C(O)([C@@H](C)OC(=O)[C@@H](C)CC)C(C)O1 (stereo not given in full) .
0

* * *

# Test system: CAKI-1
# assay.details: NCI tumour cell line growth inhibition, 48 h
Activity calls are given as the source filed them. Cut-off read from the data, not from the text of the source: active = GI50 up to about 1.1 µM and inactive = higher. Where a SMILES comes first, the peptide text is derived from it. [ ]: non-standard residue; d: D form. Ac5c = NC1(C(=O)O)CCCC1
Log the outcome using a class from true (active), false (inactive)

{"columns": ["molecule", "category.label"],
 "data": [
  ["O=C(O)COCC(=O)N(CCOCCN(Cc1ccccc1)C(=O)COCC(=O)O)Cc1ccccc1", "false"],
  ["CC(C)(C)c1ccc(-c2nnc(-c3cc(C#N)cc(-c4nnc(-c5ccc(C(C)(C)C)cc5)o4)c3)o2)cc1", "false"],
  ["CC(=O)OCC1OC(O/C=C(\\CN=[N+]=[N-])C(C)=O)C(OC(C)=O)C(OC(C)=O)C1OC(C)=O (centres undefined)", "false"],
  ["COC(=O)C12CC(C3CC31)C1CC12 (centres undefined)", "false"],
  ["CC1=C(C(=O)Nc2ccccc2)C(c2ccccc2)C(C(=O)Nc2ccccc2)=C(C)N1", "false"],
  ["c1cnc2c(c1)-n1cccc1C1(CCOCC1)NN2", "false"],
  ["C/C=C(\\N=C=S)C(=O)OC1C(COC(C)=O)OC([C@]2(O)CC(=O)C(N)=C(C(=O)O)C2=O)C(O)C1OC1CC(OC)C(O)([C@@H](C)OC(=O)[C@@H](C)CC)C(C)O1 (some centres undefined)", "false"],
  ["O=C1c2ccccc2C(=O)N1CC#CCO", "false"],
  ["NC1(C(=O)NC2(C(=O)O)CCCC2)CCCC1 (H-[Ac5c]-[Ac5c]-OH)", "false"],
  ["CCCCCCCCC(=O)NCCCNCCCNC(=O)CCCCCCCC", "false"]
]}

Each molecule tested received a call. Report the one for Cc1ccc(NC(c2ccccc2)c2ccc3cccnc3c2O)cc1 (centres undefined) .
false

Each molecule tested received a call. Report the one for CC(O)c1cc2c(s1)C(=O)c1c(C(C)O)csc1C2=O (centres undefined) .
true

Each molecule tested received a call. Report the one for O=C1c2cccnc2C(=O)c2c1nc1ccccc1c2-c1cncc(-c2c3c(nc4ccccc24)C(=O)c2cccnc2C3=O)c1 .
true

Each molecule tested received a call. Report the one for Cc1ccc(-c2c(C#N)c(S)n(NS(=O)(=O)c3ccc(C)cc3)c(=O)c2C#N)cc1 .
false

Each molecule tested received a call. Report the one for CC(O[Si](c1ccccc1)(c1ccccc1)C(C)(C)C)[C@H](NC(=O)OC(C)(C)C)C(=O)O (some centres undefined) .
false

Each molecule tested received a call. Report the one for O=C1OC2C(O)COC2(O)C1(O)Cc1c[nH]c2ccccc12 (centres undefined) .
false

Each molecule tested received a call. Report the one for O=C(NC(C(F)(F)F)(C(F)(F)F)P(=O)(Cc1ccccc1)Cc1ccccc1)C(C(F)(F)F)C(F)(F)F .
false

Each molecule tested received a call. Report the one for O=C(NCCCC/N=c1/cccccc1NCCCCNC(=O)OCc1ccccc1)OCc1ccccc1 .
false

Each molecule tested received a call. Report the one for O=C(O)c1cc(/N=N/c2ccc([As](=O)(O)O)cc2)ccc1O .
false

* * *

# Tested on: NCI-H522
# assay.details: NCI tumour cell line growth inhibition, 48 h
Activity calls are given as the source filed them. No stated cut-off is given here; in the data, active = GI50 up to about 1.1 µM and inactive = higher.
Log the outcome using a class from yes (1) (active), no (0) (inactive)

Some solved cases for reference:
{"columns": ["molecule", "category.label"],
 "data": [
  ["O=C(/C=C/c1c(O)ccc2ccccc12)c1ccccc1Cl", "no (0)"],
  ["CC1(C)C/C=C\\CCC(O)C(O)CCC(C)(C)C1=O (stereo not drawn)", "no (0)"],
  ["Cc1cc(NS(=O)(=O)c2ccc(NC(=O)c3ccc4nc5ccccc5c(Nc5ccc(S(=O)(=O)Nc6cc(C)on6)cc5)c4c3)cc2)no1", "no (0)"],
  ["C/C=C\\C1OC1(C)c1cc(=O)c2c(C)cc3c(c2o1)C(=O)c1c(O)c(C2CC(C)(N(C)C)C(OC(C)=O)C(C)O2)cc(C2CC(N(C)C)C(O)C(C)O2)c1C3=O (stereo not drawn)", "yes (1)"],
  ["CC(C)[Si](OC/C(=C/COC(C)(C)C)[C@H]1CC=C(C(=O)c2ccccc2N2CN(C)C(=O)N(C)C2)C1)(C(C)C)C(C)C", "no (0)"],
  ["C=C(C)CC(C)(c1cc2ccccc2n1C)N1CCOCC1 (stereo not drawn)", "no (0)"]
]}

Each molecule tested received a call. Report the one for CN(C)CCCNc1ccc2c(=O)n(CCN(C)C)c(=O)n3c4ccccc4c(=O)c1c23 .
yes (1)

Each molecule tested received a call. Report the one for NC1=NN(c2ccccc2)C2(c3ccncc3C(=O)O)C1C(N)=NN2c1ccccc1 (stereo not drawn) .
no (0)
